- target: Aurora kinase A (AURKA) (Homo sapiens)
- Sequence (O14965 122-403): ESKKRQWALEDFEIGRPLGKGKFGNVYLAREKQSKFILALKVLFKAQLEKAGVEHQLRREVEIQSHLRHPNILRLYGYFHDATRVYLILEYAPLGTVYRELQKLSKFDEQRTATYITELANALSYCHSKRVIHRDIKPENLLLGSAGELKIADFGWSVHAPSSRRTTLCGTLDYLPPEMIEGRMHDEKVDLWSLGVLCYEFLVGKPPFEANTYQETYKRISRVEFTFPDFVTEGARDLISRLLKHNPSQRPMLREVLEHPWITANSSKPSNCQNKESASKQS
recorded endpoint: Kd (µM)
State the answer as a number, implicitly in µM.

Using the record for COc1ccc(NC(=O)Nc2ccc3c(c2)C(=O)N([C@@H](C)CO)C[C@H](C)[C@H](CN(C)Cc2ccc4c(c2)OCO4)O3)cc1 , state its measured Kd.
0.341
